# Tested on: PNAG conjugates on the array (dPNAG, PNAG and intermediate levels of deacetylation)
# run_description: Neoglycoprotein (glycan) microarray binding, 816-component array
# cond: ability to bind both dPNAG and PNAG and intermediate levels of deacetylation
metric_name: PNAG Binding on Array

TG10 E57A: TG10 HC E57A (SEQ ID NO: 37) with TG10 LC (SEQ ID NO: 12) (antibody, V domains shown, Site directed mutation of TG10 HC Variable Region; TG10 Light Chain Variable Region) VH: EVQLVESGGGLVQPGGSLRLSCAVSGFPFSSYWMSWVRQAPGKGLEWVANIKADGSEKYYVDSVKGRFTISRDNAKNSLYLQMNSLRAEDTAVYYCATDPDVGLSDSWGQGTLVTVSS VL: EIVLTQSPGTLSLSPGDRATHSCRASQSVSRSYLAWYQQKPGQTPRLFIYGASNRATGIPDRFSGSGSGTYFTLTISRLEPEDFAVYYCQQYDSAPDTFGQGTRLEIK
Yes
TG10 D116A: TG10 HC D116A (SEQ ID NO: 34) with TG10 LC (SEQ ID NO: 12) (antibody, V domains shown, Site directed mutation of TG10 HC Variable Region; TG10 Light Chain Variable Region) VH: EVQLVESGGGLVQPGGSLRLSCAVSGFPFSSYWMSWVRQAPGKGLEWVANIKEDGSEKYYVDSVKGRFTISRDNAKNSLYLQMNSLRAEDTAVYYCATDPDVGLSASWGQGTLVTVSS VL: EIVLTQSPGTLSLSPGDRATHSCRASQSVSRSYLAWYQQKPGQTPRLFIYGASNRATGIPDRFSGSGSGTYFTLTISRLEPEDFAVYYCQQYDSAPDTFGQGTRLEIK
Yes
TG10 V110R: TG10 HC V110R (SEQ ID NO: 39) with TG10 LC (SEQ ID NO: 12) (antibody, V domains shown, Site directed mutation of TG10 HC Variable Region; TG10 Light Chain Variable Region) VH: EVQLVESGGGLVQPGGSLRLSCAVSGFPFSSYWMSWVRQAPGKGLEWVANIKEDGSEKYYVDSVKGRFTISRDNAKNSLYLQMNSLRAEDTAVYYCATDPDRGLSDSWGQGTLVTVSS VL: EIVLTQSPGTLSLSPGDRATHSCRASQSVSRSYLAWYQQKPGQTPRLFIYGASNRATGIPDRFSGSGSGTYFTLTISRLEPEDFAVYYCQQYDSAPDTFGQGTRLEIK
Yes
